- assay.summary: Rat pharmacokinetics, plasma and urine, IV and PO
- Assay type: in vivo
- protocol.conditions: rat plasma; 10 mg/kg PO or 3 mg/kg IV
readout: half-life (h)
Give just the number in h; leave the unit off.

// query Give its half-life value. Item: CC(=O)N[C@@H]1[C@H](Oc2cccc(C(F)(F)F)c2-c2cccc(NS(C)(=O)=O)c2)OC(CO)[C@H](O)[C@@H]1O (stereo partly shown)
// result 1.16

====

- assayed.system: FmlHLD (Escherichia coli)
- Construct: 6xHis (C); made in house; host or cells: E. coli C600, periplasm, pTRC99a
- Sequence (P77588 25-182): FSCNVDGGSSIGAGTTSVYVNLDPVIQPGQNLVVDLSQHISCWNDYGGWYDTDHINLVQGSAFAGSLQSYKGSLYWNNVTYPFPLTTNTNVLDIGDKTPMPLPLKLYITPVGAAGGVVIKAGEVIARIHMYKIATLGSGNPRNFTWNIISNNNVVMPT
- assay.summary: biochemical
- Assay type: binding, E. coli
- protocol.conditions: galactoside at 100 μM; mean with standard error of the mean; 100 µM
readout: PI100 (percent inhibition) (%)
Give just the number in %; leave the unit off.

The following molecules have reported results that may help.
{"columns": ["molecule", "PI100 (percent inhibition) / %"],
 "data": [
  ["COC(=O)c1cccc(-c2ccccc2O[C@@H]2O[C@H](CO)[C@H](O)[C@H](O)[C@H]2O)c1 [Compound 30β]", 86.6],
  ["COc1ccccc1O[C@@H]1O[C@H](CO)[C@H](O)[C@H](O)[C@H]1O [Compound 5β, 2-methoxyphenyl β-D-galactopyranoside]", 97.2],
  ["OC[C@H]1O[C@@H](Oc2cccc3ccccc23)[C@H](O)[C@@H](O)[C@H]1O [Compound 18β, 1-naphthalenyl α/β-D-galactopyranoside]", 45.9]
]}

Switching to the query record.
// query Give its PI100 (percent inhibition) value. Item: OC[C@H]1O[C@@H](Oc2ccc3ccccc3c2)[C@H](O)[C@@H](O)[C@H]1O [Compound 19β]
// result 78.8

====

- assay.summary: Stability in simulated intestinal fluid (SIF)
- Assay type: in vitro ADME
readout: SIF % remaining 2 h (%)
Give just the number in %; leave the unit off.

The following molecules have reported results that may help.
{"columns": ["molecule", "unit.of.measure", "SIF % remaining 2 h"],
 "data": [
  ["CC(=O)N[C@H]1[C@H](Oc2cccc(F)c2-c2cccc(NS(C)(=O)=O)c2)O[C@H](CO)[C@H](O)[C@@H]1O", "%", 93.79],
  ["CC(=O)N[C@H]1[C@H](Oc2cccc(C)c2-c2cccc(NS(C)(=O)=O)c2)O[C@H](CO)[C@H](O)[C@@H]1O", "%", 100.00],
  ["CC(=O)N[C@@H]1[C@H](Oc2cccc(C(F)(F)F)c2-c2cccc(NS(C)(=O)=O)c2)OC(CO)[C@H](O)[C@@H]1O (stereo partly drawn)", "%", 91.9]
]}

// query Give its SIF % remaining 2 h value. Item: Cc1cccc(O[C@@H]2OC(CO)[C@H](O)[C@H](O)[C@@H]2NC(=O)C(F)(F)F)c1-c1cccc(NS(C)(=O)=O)c1 (stereo partly drawn)
// result 89.15

// query Give its SIF % remaining 2 h value. Item: `CC(=O)N[C@H]1[C@H](Oc2cccc(C)c2-c2cccc(NS(=O)(=O)C3CC3)c2)O[C@H](CO)[C@H](O)[C@@H]1O`
// result 100.00

// query Give its SIF % remaining 2 h value. Item: CC(=O)N[C@@H]1[C@H](Oc2cccc(C#N)c2-c2cccc(NS(C)(=O)=O)c2)OC(CO)[C@H](O)[C@@H]1O (stereo partly drawn)
// result 100.00
